Listing of entries alongside the reported melting point.

# input Name the recorded melting point for NCC(=O)Nc1ccc([N+](=O)[O-])cc1C(=NO)c1ccccc1F .
# output 198 °C

# input // next record Cc1ccc(C)c2c1CN(NC(=S)NC(=O)c1ccccc1)C2
# output 163 to 164 °C

# input Same question for CCOC(=O)c1cc2nc(C)oc2nc1C(=O)OCC please.
# output 101 to 103 °C

# input Now try CC(S)CNC(=O)OCc1ccc([N+](=O)[O-])cc1 (stereo not given) .
# output 54 to 56.5 °C

# input Try this compound too: O=[N+]([O-])c1ccc(N2CCN(c3cc(N4CCCC4)nc(N4CCCC4)n3)CC2)cc1
# output 200 to 201 °C

# input One more compound: Cn1c2c(c3cccc(F)c31)C(=O)NCCC2
# output 233 to 235 °C

# input Can you check CCOC(=O)N1CCN2c3ccccc3Cc3ccccc3C2C1 (stereo not given) next?
# output 108 to 110 °C

# input What do we get for CCOC(=O)CCCCCCCn1c(-c2ccccc2)c(-c2ccccc2)[nH]c1=O ?
# output 78 to 79 °C

# input Same again, this time with O=C(Cl)c1c(Cl)c(Cl)c(Cl)c2c(Cl)c(Cl)c(Cl)c(Cl)c12
# output 163 to 165 °C

# input Then what about the compound C=C1CCCN(C(=O)c2ccc(NC(=O)c3ccccc3C)cc2)c2ccccc21 ?
# output 216 to 217 °C

# input Repeat for the following compound: CC1(C)OC(=O)Nc2ccc(-c3cncc(Br)c3)cc21
# output 211 to 212 °C

# input # repeat for CCCCc1nc2c(N)nc3ccc(OCC(=O)N(CCOC)CCOC)cc3c2n1C
# output 125 to 128 °C

# input Field entry: COc1ccc([C@H](Sc2ccccc2NC(C)=O)[C@@H](O)C(=O)O)cc1
# output 173 to 175 °C

# input Check O=C(O)c1cccc(NCc2cccnc2)c1C(=O)O too.
# output 231 to 233 °C

# input Follow-up entry: O=C(O)c1ccccc1OCCCN1C(=O)c2ccccc2C1=O
# output 155 to 157 °C

###

The following compounds are listed with their measured melting point values.

Here are 6 compounds together with their reported answers.
COMPOUND	melting point
CC(C)(C)OC(=O)NCC(=O)c1cccnc1	98 to 99 °C
N#Cc1nn(-c2c(Cl)cc(C(F)(F)F)cc2Cl)c(N)c1-c1ccsc1	210 to 212 °C
Clc1ccc(N2CCN(Cc3cn4cc(Cl)ccc4n3)CC2)c(Cl)c1	136 to 138 °C
CN(C)CCCCCCCCCCC(=N)NC(=S)Nc1ccc(Cl)cc1	130 to 132 °C
N=C(N)c1cccc(Cc2c[nH]cn2)c1O	249 °C
O=C(NC(Cc1ccccc1)C(=O)O)c1ccc2cc(Oc3ccccc3)ccc2c1 (stereo not given)	179 to 180 °C

# input I have this compound here, CN(CCS(C)(=O)=O)C1CCN(S(=O)(=O)c2ccc(Nc3nccc(-c4ccc(F)cc4)n3)cc2)CC1 , and I need its recorded melting point.
# output 166 °C

# input Same again, this time with COC(=O)c1c[nH]c(Sc2cc(Cl)c(Cl)cc2Cl)c1
# output 165 to 175 °C

# input What do you have for OCC1CN(C(c2ccccc2)c2ccccc2)C1 ?
# output 114 to 116 °C

# input Param item: N#Cc1c(N2CCCCC2)cc(-c2ccc(F)cc2)c2c1-c1ccccc1C2
# output 176 to 178 °C

###

Measured melting point by item

Solved cases (10 shown):
MOLECULE	MEASURED
NCCNc1ncc2ncnc(Nc3ccc(F)c(Cl)c3)c2n1	173 to 175 °C
CCCC1=C(C#N)C(c2cccc(Br)c2)c2c[nH]nc2N1 (stereo unspecified)	202 to 205 °C
N#CC(=Cc1cc2cccnc2n(-c2cc(Cl)cc(Cl)c2)c1=O)c1ccccn1	319 °C
O=C(O)c1ccc(-c2cc(-c3ccccc3)no2)cc1	> 300 °C
CCC(OC(=O)C1CC1)c1ccc(Cl)c2nc3n(c12)CCCN3c1ccc(OC)nc1C (stereo unspecified)	149 to 151 °C
Clc1nc(N2CCOCC2)nc(-n2cnc3ccccc32)n1	201 to 203 °C
OCCNc1nc(NCc2ccccc2)c2ncc(Cl)cc2n1	106 to 107 °C
Cc1ccc(Sc2ccc3c(c2)CC[C@H]2NC(=O)CC[C@]32C)cc1	209 to 212 °C
O=c1[nH]c2ccccc2n1CCN1CCC(C(c2ccc(F)cc2)c2ccc(F)cc2)CC1	104 to 106 °C
CC(=O)N(O)Cc1cccc(C#Cc2ccccc2)c1	91 to 93 °C

# input Could you share which melting point value was measured for COc1ccc2c(-c3ccccc3)c(C(=O)c3ccc(Cl)cc3)sc2c1 ?
# output 115 °C

###

We begin with a simple list: items and their reported melting point.

Solved entries:
COMPOUND	melting point
COc1ccccc1SC(c1ccccc1)c1c(O)cc(-c2ccccc2)oc1=O (stereo not given)	165 to 170 °C
O=C(C=C1C(=O)N(c2ccccc2)C(=O)N1c1ccccc1)Nc1ccccc1	214 °C
NNc1cc(-c2ccccn2)ccn1	120 to 121 °C

# input melting point for Cn1nc(Cl)c(Cl)c1S(=O)(=O)CCCl ?
# output 56 to 59 °C

# input And Fc1cc(I)c2nc[nH]c2c1 ?
# output 210 to 211 °C

# input Request: Cc1cc(Oc2ccc3nc(COc4ccc(CC5SC(=O)NC5=O)cc4)n(C)c3c2)cc(C)c1N (stereo not given)
# output 209 to 211 °C

# input Entry Cc1cn(-c2cc(C#N)cc(C(F)(F)F)c2)cn1 please
# output 127 to 128 °C

# input Param item: C1=C(c2ccc3c(c2)OCCO3)CCN(CCc2cccc3ccccc23)C1
# output 170 to 180 °C

###

Entries and their measured melting point follow.

COMPOUND	melting point
COC(=O)c1ccc(Cc2cn(C)c3ccc(C(=O)O)cc23)c(OC)c1	249 to 251 °C
Nc1c(Cl)cc(Nc2ncnc3cnc(N[C@H]4CC[C@H](C(=O)N5CCOCC5)CC4)nc23)cc1Cl	204 to 207 °C
O=C1NC(=Cc2ccc(Cl)cc2Cl)C(=O)C1=NO	180 °C
CCOC(=O)c1nccc(Oc2ccc3c(C(=O)O)cccc3c2)n1	214 to 217 °C
Cc1c(C)c(C)c(S(=O)(=O)NC(Cc2nc3ccc(C=CCNC4=NCCN4)cc3c(=O)[nH]2)C(=O)O)c(C)c1C (configuration not stated)	131 to 135 °C
COC(=O)C(C(=O)OC)C(Cc1c([N+](=O)[O-])cccc1C(F)(F)F)c1ccc(OC)cc1 (configuration not stated)	117 to 119 °C

Next:
# input What melting point value was documented for this compound, COCCc1nc2c(N)nc3ccccc3c2n1CC(C)C ?
# output 168 to 170 °C

###

MEASURED_ENDPOINT: melting point

COMPOUND	melting point
COc1ccc(CCNC(=S)Cc2nnnn2C)cc1OC	90 to 92 °C
CCC(CC)n1cc(Cl)nc(N2CCc3cc(OC)cc(Br)c32)c1=O	130 to 132 °C

# input Quick check: melting point of COc1ccc(C(=O)c2ccnn2Cc2ccccc2)c(Cl)c1Cl ?
# output 102 to 105 °C

# input CC(NC(=O)c1ccc(-c2ccccc2)cc1)C(=O)O (centres undefined) ?
# output 160 °C

# input Try the compound Nc1ncc2c(n1)CCC(NC(=O)[C@@H]1CCCN1C(=O)[C@@H](Cc1ccccc1)NS(=O)(=O)Cc1ccccc1)C2 (some centres undefined)
# output 117 to 120 °C

###

MEASURED_ENDPOINT: melting point

COMPOUND	melting point
OCCCN1CCC(c2noc3cc(F)ccc23)CC1	140 to 142 °C

# input Which melting point is reported for this compound? O=C(Nc1ccc(Oc2ccnc(NCC3OCCO3)n2)c2ccccc12)c1cc(F)cc(N2CCOCC2)c1
# output 122 to 124 °C

# input Then this compound: COc1ccc(Cn2c(Br)nc3c(-c4ccco4)ncnc32)cc1
# output 150 to 151 °C

# input Now give it for Nc1nc(Nc2ccc([N+](=O)[O-])cc2)sc1C(=O)c1ccccc1[N+](=O)[O-] too.
# output 266 to 268 °C

###

MEASURED_ENDPOINT: melting point

Answered cases to consult:
COMPOUND_STRUCTURE_STRING	MEASURED_ENDPOINT	MEASURED
O=CN1CCC(c2nn(-c3ccc(C(F)(F)F)cc3)c3cc(F)ccc23)CC1	melting point	142 to 144 °C
CN1C(=O)CC[C@]2(C)c3ccc(-c4ccc(Oc5ccccc5)cc4)cc3CC[C@@H]12	melting point	148 to 150 °C
COCC1=C(C(=O)OC)C(c2ccc(Br)cc2)C(C(=O)OC)=C(COC)N1	melting point	162 to 163 °C
CC(=O)Oc1ccc(C(=O)O)cc1C(=O)c1ccccc1	melting point	162 to 163 °C
COc1cc(Nc2c(C#N)cnc3cc4cc(OCCN5CCOCC5)c(OC)cc4cc23)c(Cl)cc1F	melting point	206 to 222 °C
COC(=O)c1ccccc1OCNC(=O)CCCCCNC(=O)OC(C)(C)C	melting point	120 to 121 °C

# input I'd like to know its melting point. The compound in question is COc1ccc(-c2cc(-c3ccc(F)cc3)ccc2C(=O)O)cc1OC
# output 210 °C

// data source = a melting point compilation (Tetko et al.; mined from patent text by program, amines drawn as free bases though some values may be those of a salt)
